Molecular target: F protein of RSV Long (RSV LONG M-2) (human respiratory syncytial virus, …, UniProt P12568 26-574)
Experiment: cell-based or functional assay
Answer not satisfied if RSV neutralization IC50 (nM) (n = 2), Long is under 200 nM, and satisfied if it is 200 nM or more.

Form field: RSV neutralization IC50 (nM) (n = 2), Long at least 200 nM? Entry: RSVNC23 (VHH) VHH: EVQLVESGGGLVQPGGSLRLSCAASGRTFSSIAMGWFRQAPGKEREFVAAISWSRGRTFYADSVKGRFIISRDDAANTAYLQMNSLKPEDTAVYYCAVDTASWNSGSFIYDWAYDHWGQGTQVTVSS
not satisfied

# bool: RSV neutralization IC50 (nM) (n = 2), Long of LG191D3 (VHH) VHH: EVQLVESGGGLVQAGGSLRLSCEASGRTYSRYGMGWFRQAPGKEREFVAAVSRLSGPRTVYADSVKGRFTISRDNAENTVYLQMNSLKPEDTAVYTCAAELTNRNSGAYYYAWAYDYWGQGTQVTVSS >= 200 nM
satisfied

Hi, just wondering whether 1E4 (VHH) VHH: EVQLVESGGGLVQAGGSLRLSCEASGRTFSSYGMGWFRQAPGKEREFVAAVSRLSGPRTVYADSVKGRFTISRDNAENTVYLQMNSLKPEDTAVYTCAAELTNRNPGAYYYTWAYDYWGQGTQVTVSS shows RSV neutralization IC50 (nM) (n = 2), Long of 200 nM or higher.
satisfied

Continue with the next binder.
Does RSVPMP7B2 (VHH) VHH: EVQLVESGGGLVQAGDSLRLSCAASGRTFSSYAMGWFRQAPGKEREFVAAISWSDGSTYYADSVKGRFTISRDNAKNTVYLQMNSLKPEDTAVYYCAADLTSTNPGSYIYIWAYDYWGQGTQVTVSS have a reported RSV neutralization IC50 (nM) (n = 2), Long of at least 200 nM?
not satisfied

Entry source: patent US20200123233A1
